Recorded z-score, one value per entry.
target: Metabotropic glutamate receptor 8 (Rattus norvegicus); experiment: mGluR8 Gi/Go-coupled signaling modulation – cell-based, rat, thallium flux, HTS, primary screen (AID 488969); details: HEK293 rat mGluR8, GIRK thallium flux, FluoZin2; at 10 µM; stronger effect = higher value; submaximal glutamate (EC20) added with thallium
In all, about 110,000 compounds were measured (“z-score”: median about -0.1, highest 2% from about 2 on). The entries come from a sample that favours the highest values as a whole.
measurement-label: z-score

- compound: "CCCCNc1ccc2nsnc2c1[N+](=O)[O-]"
  system: "Metabotropic glutamate receptor 8 (Rattus norvegicus)"
  measurement-label: "z-score"
  readout-number: -0.137
- compound: "Cc1nn(C)c(C)c1S(=O)(=O)N(CC(=O)N1CCc2ccccc2C1)c1ccc(C(C)C)cc1"
  system: "Metabotropic glutamate receptor 8 (Rattus norvegicus)"
  measurement-label: "z-score"
  readout-number: -0.0258
- compound: "CC(C)=CC[N+]1(C)CCCCC1"
  system: "Metabotropic glutamate receptor 8 (Rattus norvegicus)"
  measurement-label: "z-score"
  readout-number: 1.14
- compound: "CCN(C(=O)c1cc2ccccc2oc1=O)c1cccc(C)c1"
  system: "Metabotropic glutamate receptor 8 (Rattus norvegicus)"
  measurement-label: "z-score"
  readout-number: 0.00276
- compound: "c1ccc(-n2ncc3c(N4CCCCC4)ncnc32)cc1"
  system: "Metabotropic glutamate receptor 8 (Rattus norvegicus)"
  measurement-label: "z-score"
  readout-number: -0.259
- compound: "CC1CN=C2C(C(=O)Nc3ccccc3)=C(O)CC(c3ccccc3)N21 (stereo unspecified)"
  system: "Metabotropic glutamate receptor 8 (Rattus norvegicus)"
  measurement-label: "z-score"
  readout-number: 2.31
- compound: "Cc1ccc(NC(=O)N2CCC(C(=O)NCc3ccccc3)CC2)cc1"
  system: "Metabotropic glutamate receptor 8 (Rattus norvegicus)"
  measurement-label: "z-score"
  readout-number: -0.545
- compound: "C=CCSc1nnc(NC(=O)c2cccc(S(=O)(=O)N(C)c3ccccc3)c2)s1"
  system: "Metabotropic glutamate receptor 8 (Rattus norvegicus)"
  measurement-label: "z-score"
  readout-number: 0.542
- compound: "COCCSc1nnc(-c2cccc(C#N)c2)n1C"
  system: "Metabotropic glutamate receptor 8 (Rattus norvegicus)"
  measurement-label: "z-score"
  readout-number: 2.31
- compound: "CC(C)C(=O)NCCc1nc2ccccc2n1C"
  system: "Metabotropic glutamate receptor 8 (Rattus norvegicus)"
  measurement-label: "z-score"
  readout-number: 0.0935
- compound: "Cn1ccnc1SCC(=O)Nc1ccc2nc(SCC(=O)NC3CC3)sc2c1"
  system: "Metabotropic glutamate receptor 8 (Rattus norvegicus)"
  measurement-label: "z-score"
  readout-number: -0.00819
- compound: "O=C(NCCc1ccc(Cl)cc1)C1CCCN(S(=O)(=O)c2cnc[nH]2)C1 (stereo unspecified)"
  system: "Metabotropic glutamate receptor 8 (Rattus norvegicus)"
  measurement-label: "z-score"
  readout-number: 0.0211
- compound: "O=C(CCC1CCCC1)NC1CCCCC1"
  system: "Metabotropic glutamate receptor 8 (Rattus norvegicus)"
  measurement-label: "z-score"
  readout-number: -0.0138
- compound: "CCCCCC[n+]1c(-c2ccc(Cl)cc2Cl)csc1Nc1ccccc1"
  system: "Metabotropic glutamate receptor 8 (Rattus norvegicus)"
  measurement-label: "z-score"
  readout-number: -0.156
- compound: "C=CCSc1nnc(Cc2cc(=O)[nH]c(=O)[nH]2)n1-c1cc(C)ccc1C"
  system: "Metabotropic glutamate receptor 8 (Rattus norvegicus)"
  measurement-label: "z-score"
  readout-number: -0.111
- compound: "O=C(Nc1ccccc1)C1=C(O)CC(c2ccc(Cl)cc2)N2CCN=C12 (stereo unspecified)"
  system: "Metabotropic glutamate receptor 8 (Rattus norvegicus)"
  measurement-label: "z-score"
  readout-number: -0.724
- compound: "CC1CCCCC1NC(=O)CSCC(=O)O (stereo unspecified)"
  system: "Metabotropic glutamate receptor 8 (Rattus norvegicus)"
  measurement-label: "z-score"
  readout-number: -0.0424
- compound: "CCOC(=O)C1=C(C)N=C2SC(C)C(=O)N2C1c1ccc(OCC)c(OCC)c1 (stereo unspecified)"
  system: "Metabotropic glutamate receptor 8 (Rattus norvegicus)"
  measurement-label: "z-score"
  readout-number: 0.125
- compound: "CCOC(=O)c1ccc(Nc2ncnc3ccc(C)cc23)cc1"
  system: "Metabotropic glutamate receptor 8 (Rattus norvegicus)"
  measurement-label: "z-score"
  readout-number: -0.372
- compound: "c1ccc(CNn2c(N3CCOCC3)nc3ccccc32)cc1"
  system: "Metabotropic glutamate receptor 8 (Rattus norvegicus)"
  measurement-label: "z-score"
  readout-number: 0.241
- compound: "O=C(O)CCC(=O)NC1CCCCC1NC(=O)CCC(=O)O (stereo unspecified)"
  system: "Metabotropic glutamate receptor 8 (Rattus norvegicus)"
  measurement-label: "z-score"
  readout-number: 2.2

* * *

target: Metabotropic glutamate receptor 8 (Rattus norvegicus); test: mGluR8 Gi/Go-coupled signaling modulation – cell-based, rat, thallium flux, HTS, primary screen (AID 488969); settings: HEK293 rat mGluR8, GIRK thallium flux, FluoZin2; at 10 µM; stronger effect = higher value; submaximal glutamate (EC20) added with thallium
The full ranking holds about 110,000 compounds; the median of “z-score” is about -0.1, and the highest 2% start at about 2. The sample as a whole holds a higher share of the highest values than the screen did.
Recorded z-score, one value per entry.

- molecule: "COc1cccc(N/C=C(\\C#N)c2ccc(OCCCF)cc2)c1"
  z-score: 0.135
- molecule: "O=C(CCSCc1ccc(Cl)cc1)NCCc1ccccc1"
  z-score: -0.0466
- molecule: "Cc1ccc(NC(=S)NNC(=O)C2CC2c2ccc(C)cc2)cc1 (stereo not drawn)"
  z-score: 1.64
- molecule: "O=C1/C(=C/c2ccccc2)Nc2ccccc21"
  z-score: -0.773
- molecule: "CN(C)/C=N/C(=S)Nc1ccc(Br)cc1F"
  z-score: 1.46
- molecule: "CC1=C(C)CC(C(=O)Nc2cccc(Cl)c2)C(C(=O)O)C1 (stereo not drawn)"
  z-score: -0.289
- molecule: "Oc1c(Cl)cc(Cl)cc1C=Nc1ccccc1N1CCCC1"
  z-score: 0.0524
- molecule: "CCCS(=O)(=O)N1CCC(C(=O)NCc2ccco2)CC1"
  z-score: 0.18

* * *

Recorded z-score, one value per entry.
target: Metabotropic glutamate receptor 8 (Rattus norvegicus); test: mGluR8 Gi/Go-coupled signaling modulation – cell-based, rat, thallium flux, HTS, primary screen (AID 488969); settings: HEK293 rat mGluR8, GIRK (G protein-gated inwardly rectifying potassium channel) thallium flux, FluoZin2; at 10 µM; stronger effect = higher value; submaximal glutamate (EC20) added with thallium
Over roughly 110,000 compounds, “z-score” has its median near -0.1; the highest 2% begin near 2. The full list was thinned out, with the highest values kept by preference.
measurement-label: z-score

- compound: "Cc1cc(-c2ccccc2)c(C#N)c(=S)[nH]1"
  measurement-label: "z-score"
  readout-number: 0.152
- compound: "CCc1nnc(NC(=O)c2ccc(S(=O)(=O)N3CCc4ccccc4C3)cc2)s1"
  measurement-label: "z-score"
  readout-number: -0.158
- compound: "CC12CCC(C(=O)N3CCc4ccccc43)(CC1=O)C2(C)C (stereo unspecified)"
  measurement-label: "z-score"
  readout-number: 0.155
- compound: "CCC(=O)OCCn1c(Br)nc2c1c(=O)[nH]c(=O)n2C"
  measurement-label: "z-score"
  readout-number: -0.265
- compound: "Cc1ccsc1C1Nc2ccccc2C(=O)N1O (stereo unspecified)"
  measurement-label: "z-score"
  readout-number: -0.218
- compound: "Cc1cc(Cl)ccc1OCCCC(=O)NCC1CCCO1 (stereo unspecified)"
  measurement-label: "z-score"
  readout-number: -0.79
- compound: "O=C(NCc1cccnc1)c1ccccc1[N+](=O)[O-]"
  measurement-label: "z-score"
  readout-number: -0.0931
- compound: "N#CC1=C(S)N(c2ccccc2)C(c2ccc(-c3cccc(Cl)c3)o2)NC1=O (stereo unspecified)"
  measurement-label: "z-score"
  readout-number: -0.292
- compound: "O=C(c1ccccc1)N1CCCc2ccccc21"
  measurement-label: "z-score"
  readout-number: 3.33
- compound: "CSc1nc2ccccc2cc1/C=C(\\C#N)c1ccccc1"
  measurement-label: "z-score"
  readout-number: 0.0152
- compound: "CC(O)CN(C)CC/C=C1/c2ccccc2CSc2ccccc21 (stereo unspecified)"
  measurement-label: "z-score"
  readout-number: 0.694
- compound: "COc1ccc(C(=O)c2ccc(CC#N)s2)cc1"
  measurement-label: "z-score"
  readout-number: -0.0619
- compound: "N#CC(c1ccccc1)c1ccc2c(C(F)(F)F)cc(C(F)(F)F)nc2n1 (stereo unspecified)"
  measurement-label: "z-score"
  readout-number: 0.135
- compound: "COc1ccc(Br)cc1CN1CCCCCCC1"
  measurement-label: "z-score"
  readout-number: 0.169
- compound: "O=C1c2ccccc2NC(c2ccc(-c3cccc(Cl)c3)o2)N1O (stereo unspecified)"
  measurement-label: "z-score"
  readout-number: 2.57
- compound: "Cc1nn(C)cc1C1Nc2ccccc2C(=O)N1O (stereo unspecified)"
  measurement-label: "z-score"
  readout-number: -0.121
- compound: "O=C1c2ccccc2NC(c2ccc(-c3ccc(Br)cc3)o2)N1O (stereo unspecified)"
  measurement-label: "z-score"
  readout-number: 3.36
- compound: "CN(C(=O)Nc1ccc(S(=O)(=O)N(C)C)cc1)C1CCCCC1"
  measurement-label: "z-score"
  readout-number: -0.0267
- compound: "C=CCN(C)CC/C=C1\\c2ccccc2CSc2ccccc21"
  measurement-label: "z-score"
  readout-number: 1.99
- compound: "Cc1nn(Cc2ccc(Br)cc2)c(C)c1NC(=O)c1nn(C)cc1Cl"
  measurement-label: "z-score"
  readout-number: -0.296
- compound: "N#Cc1c(-c2ccc(C(F)(F)F)cc2)cc(-c2ccccc2)[nH]c1=S"
  measurement-label: "z-score"
  readout-number: 1.24
